ASSAY_NAME: collision cross section in nitrogen (drift tube, single-field); higher = larger gas-phase ion size;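 also: chemical standards at 10 µM analysed by drift tube IMS-QTOF MS in about 3.95 torr nitrogen, mean of duplicate injections differing ≤1%, mass error below 10 ppm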
COND: ion type: [M+H]; ion source: APCI; ion mode: Positive
MEASUREMENT_TYPE: collision cross section in nitrogen (Å²)
Write the answer as a number in Å², unit excluded.

Some solved entries appear below for comparison.
CCOC(=O)CN[C@@H](C(=O)N1CC[C@H]1C(=O)NCc1ccc(/C(N)=N/O)cc1)C1CCCCC1; 208.6
CCSC(C)CC1CC(=O)C(C(CC)=NOC/C=C/Cl)=C(O)C1 (centres undefined); 187.7
CCOc1nc(F)cc2nc(S(=O)(=O)Nc3c(Cl)cccc3Cl)nn12; 184.6

Prompt line: Given the molecule CCN(CC)c1ccc2c(C)cc(=O)oc2c1 , what is its reported collision cross section in nitrogen?
Response line: 152.6

---

ASSAY_NAME: collision cross section in nitrogen (drift tube, single-field); higher = larger gas-phase ion size
COND: ion type: [M-H]; ion source: ESI; ion mode: Negative
MEASUREMENT_TYPE: collision cross section in nitrogen
Kindly format the answer as number then unit.

Record excerpt, results attached:
COc1cc(-c2nc(NC(=O)c3cc4cc(C)cc(C)c4n3CC(=O)O)sc2CCC2CCCCC2)c(OC)cc1Cl; 258.7 Å²
Nc1ccc(F)c([N+](=O)[O-])c1; 121.9 Å²
Cc1c(C)c2c(c(C)c1O)CCC(C)(COc1ccc(CC3SC(=O)NC3=O)cc1)O2 (centres undefined); 193.9 Å²
O=S(=O)(O)c1cc(Cl)c(Cl)cc1Cl; 142.8 Å²
Oc1ccc(I)cc1; 124.5 Å²
CCN(CC)c1ccc(C=O)c(O)c1; 147 Å²
Nc1cc(C(=O)O)ccc1Cl; 135.4 Å²
CC(=O)Nc1cc(S(=O)(=O)O)cc2cc(S(=O)(=O)O)c(N=Nc3ccccc3)c(O)c12; 210.2 Å²

Alright, here's another compound for you.
Prompt line: Could you tell me which collision cross section in nitrogen is on file for N#CCc1ccc(Cl)cc1 ?
Response line: 130.4 Å²

---

ASSAY_NAME: collision cross section in nitrogen (drift tube, single-field); higher = larger gas-phase ion size
COND: ion type: [M+Na]; ion source: ESI; ion mode: Positive
MEASUREMENT_TYPE: collision cross section in nitrogen (Å²)
Expressed in Å², but write only the number.

CCCCCC[C@@H](O)C/C=C\CCCCCCCC(=O)OCC(O)CO (some centres not stated) [Glyceryl monoricinoleate]; 201.9

Now look at this entry.
Prompt line: Look up collision cross section in nitrogen: CN(CCCC(O)c1cccnc1)N=O (configuration not stated) [4-(Methylnitrosamino)-1-(3-pyridyl)-1-butanol]
Response line: 152.5

---

The following compounds are shown together with reported collision cross section in nitrogen values.
ASSAY_NAME: collision cross section in nitrogen (drift tube, single-field); higher = larger gas-phase ion size
COND: ion type: [M-H]; ion source: ESI; ion mode: Negative
Respond numerically; units are Å² and should not be typed.

Prompt line: Which collision cross section in nitrogen is reported for this compound? Cc1cccc(Nc2cc(Cl)nc(SCC(=O)O)n2)c1C [[4-Chloro-6-(2,3-xylidino)-2-pyrimidinylthio]acetic acid]
Response line: 171

Prompt line: Param item = CC1Cc2ccccc2N1NC(=O)c1ccc(Cl)c(S(N)(=O)=O)c1 (stereo not drawn) [Indapamide] ; retrieve measured collision cross section in nitrogen.
Response line: 186.6

Prompt line: # collision cross section in nitrogen lookup, item Cc1ccc(N)c([N+](=O)[O-])c1
Response line: 127.7

Prompt line: Could you share which collision cross section in nitrogen value was measured for N[C@@H](Cc1ccccc1)C(=O)O ?
Response line: 140.8

Prompt line: Which collision cross section in nitrogen reading was recorded for the compound COc1ccc2sc(C(=O)Nc3nnn[nH]3)c(OC(C)C)c2c1 ?
Response line: 178.6

Prompt line: Looking for the measured collision cross section in nitrogen of COc1nn(C(=O)NS(=O)(=O)c2ccccc2OC(F)(F)F)c(=O)n1C [Flucarbazone-sodium] , can you help?
Response line: 182.9

Prompt line: Any idea what collision cross section in nitrogen was measured for CC(Cc1ccc(O)c(O)c1)C(C)Cc1ccc(O)c(O)c1 (stereo not drawn) [Nordihydroguaiaretic acid] ?
Response line: 167.5

Prompt line: Could you share which collision cross section in nitrogen value was measured for C[C@@H]1C[C@H]2[C@@H]3CCC4=CC(=O)C=C[C@]4(C)[C@@]3(F)[C@@H](O)C[C@]2(C)[C@@]1(O)C(=O)COP(=O)(O)O [Dexamethasone sodium phosphate] ?
Response line: 201

---

ASSAY_NAME: collision cross section in nitrogen (drift tube, single-field); higher = larger gas-phase ion size
COND: ion type: [M+H]; ion source: ESI; ion mode: Positive
Please use 1 whenever collision cross section in nitrogen is not below 200 Å², and -1 whenever it is.

Please review the entries below; each comes with its answer.
CCOP(=O)(OCC)Oc1nc(Cl)c(Cl)cc1Cl [Chlorpyrifos oxon]; -1
c1ccc(CNc2[nH]cnc3ncnc2-3)cc1 [N-Benzyl-1H-purin-6-amine]; -1
CCNc1nc(NC(C)C(C)C)nc(SC)n1 (stereo not given) [Dimethametryn]; -1
COc1cc(C(C)C)c2c(c1)S(=O)(=O)N(COc1cc(=O)n3cccc(OCCN4CCCCC4)c3n1)C2=O; 1

Attention now shifts to the item below.
Prompt line: For this compound, is measured collision cross section in nitrogen 200 Å² or higher? NNC(=O)c1cccc(C(=O)NN)c1 [Isophthalyl dihydrazide]
Response line: -1

---

ASSAY_NAME: collision cross section in nitrogen (drift tube, single-field); higher = larger gas-phase ion size
COND: ion type: [M+Na]; ion source: ESI; ion mode: Positive
Give fulfilled when the value for collision cross section in nitrogen is at least 200 Å². Give not fulfilled when it is less.

Answered examples (5):
CO/C=C(/C(=O)OC)c1ccccc1COc1cccc(C(F)(F)F)n1; not fulfilled
CC(C)(CO)[C@@H](O)C(=O)NCCC(=O)O [Sodium pantothenate]; not fulfilled
COc1ccccc1Oc1c(NS(=O)(=O)c2ccc(C(C)(C)C)cc2)nc(-c2ncccn2)nc1OCCO [Bosentan hydrate]; fulfilled
COc1cc(NC(=O)CC(C)=O)c(OC)cc1Cl [4'-Chloro-2',5'-dimethoxyacetoacetanilide]; not fulfilled
CCOC(=O)C(SP(=S)(OC)OC)c1ccccc1 (stereo not drawn) [Phenthoate]; not fulfilled

Prompt line: Has CCN(CC)c1ccc2cc(-c3nc4cc(S(N)(=O)=O)ccc4o3)c(=O)oc2c1 a recorded collision cross section in nitrogen greater than or equal to 200 Å²?
Response line: fulfilled

Prompt line: Would you say COc1ccnc(CS(=O)c2nc3cc(OC(F)F)ccc3[nH]2)c1OC (stereo not drawn) [Pantoprazole sodium] shows collision cross section in nitrogen at minimum 200 Å²?
Response line: not fulfilled

Prompt line: # check: collision cross section in nitrogen of CC1=C(C(=O)Nc2ccccc2)S(=O)(=O)CCO1 is greater than or equal to 200 Å²
Response line: not fulfilled

---

ASSAY_NAME: collision cross section in nitrogen (drift tube, single-field); higher = larger gas-phase ion size
COND: ion type: [M+Na]; ion source: ESI; ion mode: Positive
MEASUREMENT_TYPE: collision cross section in nitrogen (Å²)
Express your answer in Å², writing the number without its unit.

Completed entries (count: 6):
O=C(OCC1CCC2OC2C1)C1CCC2OC2C1 (stereo not drawn); 158
CN(C1CCCCC1)S(=O)(=O)c1ccccc1N [2-Amino-N-cyclohexyl-N-methylbenzenesulfonamide]; 173.9
NNC(=O)CCCCC(=O)NN [Hexanedihydrazide]; 141.5
CC#C[C@]1(O)CC[C@H]2[C@@H]3CCC4=CC(=O)CCC4=C3[C@@H](c3ccc(N(C)C)cc3)C[C@@]21C; 246.2
NC(=O)N(O)[C@@H]1COc2cc(OCc3ccccc3)ccc21; 165.5
CC[C@H]1CC[C@H](NCc2cc3c(cc2OC)[C@H]2C[C@H]2C(=O)N3C)[C@H](c2ccccc2)N1; 214.4

Prompt line: Any idea what collision cross section in nitrogen was measured for Nc1ccc([As](=O)(O)O)cc1 ?
Response line: 144.9

---

ASSAY_NAME: collision cross section in nitrogen (drift tube, single-field); higher = larger gas-phase ion size
COND: ion type: [M+Na]; ion source: ESI; ion mode: Positive
Where a name gives a salt, the structure may show the parent alone.
Known collision cross section in nitrogen of a selection of molecules
Provide only the numeric value, understood in Å².

C=CCOCC(CC)(CO)CO [2-Allyloxymethyl-2-ethylpropanediol]; 141.3
CC1=CP(=O)(c2ccccc2)CC1 (stereo not drawn) [2,3-Dihydro-4-methyl-1-phenyl-1H-phosphole 1-oxide]; 160.6
O=C(O)COCCN1CCN(C(c2ccccc2)c2ccc(Cl)cc2)CC1 (stereo not drawn) [Cetirizine hydrochloride (1:2)]; 195.6
O=C(O)C1(c2ccc3c(c2)OC[C@H](Cc2ccc(-c4ccccc4)cc2)[C@H]3O)CCCC1; 202.9
CCCOC(=O)CCCCC(=O)OCCC [Dipropyl hexanedioate]; 168.6

Prompt line: What value of collision cross section in nitrogen has been reported for the following molecule? COCC(C)OCC(C)OCC(C)O (stereo not drawn) [Tripropylene glycol monomethyl ether]
Response line: 148.8

Prompt line: Returns the measured collision cross section in nitrogen for the input molecule. Input: O=C(O)c1cccc(N(Cc2cccnc2)c2ccc(OC(F)F)c(OC(F)F)c2)c1
Response line: 205.9

Prompt line: Can you look up the measured collision cross section in nitrogen of COc1cc(OC)nc(Sc2cccc(Cl)c2C(=O)O)n1 [Pyrithiobac] for me?
Response line: 173.3

Prompt line: Quick check: collision cross section in nitrogen of O=C(Oc1ccccc1)c1ccccc1C(=O)Oc1ccccc1 [Diphenyl phthalate] ?
Response line: 181.1

Prompt line: # query: collision cross section in nitrogen of entry COP(=S)(OC)Oc1ccc(SC)c(C)c1 [Fenthion]
Response line: 166.3
